Task for the reader: assign each of the following molecules its reported viability, T/C.
System: 186277-243-T-J2-PDC complex spheroids, viability
Assay: Anticancer human tumor 186277-243-T-J2-PDC patient-derived colon adenocarcinoma cell line growth inhibition [RAS]
Settings: second compound 0.003 µM; first compound 1 µM; stronger effect = lower value
Give bare numbers, in %.

# batch size: 3; output viability, T/C per entry
1. NC1c2ccccc2OC12CCN(c1cnc3c(N4CCCc5ncccc54)n[nH]c3n1)CC2 (stereo not drawn) + CCn1c(-c2cccnc2C(C)OC)c2c3cc(ccc31)N1CCOC(CC(NC(=O)C(C(C)C)N(C)C(=O)C3(F)CCN(C(=O)C#CC(C)(C)N(C)C)CC3)C(=O)N3CCCC(N3)C(=O)OCC(C)(C)C2)C1
2. Nc1ccn(C2OC(CO)C(O)C2(F)F)c(=O)n1 (stereo not drawn) + CCn1c(-c2cc(N3CCN(C)CC3)cnc2C(C)OC)c2c3cc(ccc31)-c1csc(n1)CC(NC(=O)C1CC1C)C(=O)N1CCCC(N1)C(=O)OCC(C)(C)C2
3. Nc1ccn(C2OC(CO)C(O)C2(F)F)c(=O)n1 (stereo not drawn) + CCn1c(-c2cccnc2C(C)OC)c2c3cc(ccc31)N1CCOC(CC(NC(=O)C(C(C)C)N(C)C(=O)C3(F)CCN(C(=O)C#CC(C)(C)N(C)C)CC3)C(=O)N3CCCC(N3)C(=O)OCC(C)(C)C2)C1

Result:
[119, 4.99, 8.41]

Required: viability, T/C, one value per molecule below.
1. NC1c2ccccc2OC12CCN(c1cnc3c(N4CCCc5ncccc54)n[nH]c3n1)CC2 (stereo not drawn) + CCn1c(-c2cc(N3CCN(C)CC3)cnc2C(C)OC)c2c3cc(ccc31)-c1csc(n1)CC(NC(=O)C1CC1C)C(=O)N1CCCC(N1)C(=O)OCC(C)(C)C2
2. C=CC(=O)N1CCN(c2nc(OCC3CCCN3C)nc3c(F)c(-c4nc(N)cc(C)c4C(F)(F)F)c(Cl)cc23)C(C)C1 (stereo not drawn) + CCn1c(-c2cc(N3CCN(C)CC3)cnc2C(C)OC)c2c3cc(ccc31)-c1csc(n1)CC(NC(=O)C1CC1C)C(=O)N1CCCC(N1)C(=O)OCC(C)(C)C2
3. Cc1nc(N2CCC3(CC2)COC(C)C3N)c(CO)nc1Sc1ccnc(N)c1Cl (stereo not drawn) + CCn1c(-c2cccnc2C(C)OC)c2c3cc(ccc31)N1CCOC(CC(NC(=O)C(C(C)C)N(C)C(=O)C3(F)CCN(C(=O)C#CC(C)(C)N(C)C)CC3)C(=O)N3CCCC(N3)C(=O)OCC(C)(C)C2)C1
4. O=C(c1ccc(F)c(F)c1Nc1ccc(I)cc1F)N1CC(O)([C@@H]2CCCCN2)C1 + CCn1c(-c2cccnc2C(C)OC)c2c3cc(ccc31)N1CCOC(CC(NC(=O)C(C(C)C)N(C)C(=O)C3(F)CCN(C(=O)C#CC(C)(C)N(C)C)CC3)C(=O)N3CCCC(N3)C(=O)OCC(C)(C)C2)C1
5. CC(C)NCC(C(=O)N1CCN(c2ncnc3c2C(C)CC3O)CC1)c1ccc(Cl)cc1 (stereo not drawn) + CCn1c(-c2cccnc2C(C)OC)c2c3cc(ccc31)N1CCOC(CC(NC(=O)C(C(C)C)N(C)C(=O)C3(F)CCN(C(=O)C#CC(C)(C)N(C)C)CC3)C(=O)N3CCCC(N3)C(=O)OCC(C)(C)C2)C1

Result:
[2.57, 91.3, 114, 3.64, 62.8]

* * *

Test system: 186277-243-T-J2-PDC complex spheroids, viability
Assay: Anticancer human tumor 186277-243-T-J2-PDC cell line growth inhibition [RAS];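 note: spheroids exposed to compounds for 7 days before viability read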
Settings: second compound 0.00316 µM; first compound 0.316 µM; stronger effect = lower value
For each record, write down the corresponding viability, T/C.
Give bare numbers, in %.

1) CCN1CCN(Cc2ccc(Nc3ncc(F)c(-c4cc(F)c5nc(C)n(C(C)C)c5c4)n3)nc2)CC1 + C=CC(=O)N1CCN(c2nc(OCC3CCCN3C)nc3c(F)c(-c4nc(N)cc(C)c4C(F)(F)F)c(Cl)cc23)C(C)C1 ... 125

Each of the following entries comes with a recorded value; kindly state viability, T/C for each.
1. C[C@@H](NC(=O)c1ncnc(N)c1Cl)c1ncc(C(=O)Nc2cc(C(F)(F)F)c(Cl)cn2)s1 + C=CC(=O)N1CCN(c2nc(OCC3CCCN3C)nc3c(F)c(-c4nc(N)cc(C)c4C(F)(F)F)c(Cl)cc23)C(C)C1
2. C=CC(=O)Nc1cc(Nc2nccc(-c3cn(C)c4ccccc34)n2)c(OC)cc1N(C)CCN(C)C + C=CC(=O)N1CCN(c2nc(OCC3CCCN3C)nc3c(F)c(-c4nc(N)cc(C)c4C(F)(F)F)c(Cl)cc23)C(C)C1
3. CC1(O)CCCC1n1c(=O)c(C(F)F)cc2cnc(NC3CCN(S(C)(=O)=O)CC3)nc21 (centres undefined) + C=CC(=O)N1CCN(c2nc(OCC3CCCN3C)nc3c(F)c(-c4nc(N)cc(C)c4C(F)(F)F)c(Cl)cc23)C(C)C1

Result:
1. 73.2
2. 97.4
3. 101

* * *

Tested on: 186277-243-T-J2-PDC complex spheroids, viability
Experiment: Anticancer human tumor 186277-243-T-J2-PDC cell line growth inhibition [RAS]; active = viability on the fitted dose curve at most 10% of control; inactive = the rest;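 note: spheroids exposed to compounds for 7 days before viability read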
Conditions: second compound 0.00949 µM; first compound 1 µM
I would appreciate it if you answered using one of these outcomes: active, inactive

Check out these entries, answers already filled in.
1. CCC(CC)c1cc(NC2CCC(N)C2)n2nccc2n1 (centres undefined) + CCn1c(-c2cc(N3CCN(C)CC3)cnc2C(C)OC)c2c3cc(ccc31)-c1csc(n1)CC(NC(=O)C1CC1C)C(=O)N1CCCC(N1)C(=O)OCC(C)(C)C2 ... inactive
2. C=CC(=O)Nc1cc(Nc2nccc(-c3cn(C)c4ccccc34)n2)c(OC)cc1N(C)CCN(C)C + CCn1c(-c2cccnc2C(C)OC)c2c3cc(ccc31)N1CCOC(CC(NC(=O)C(C(C)C)N(C)C(=O)C3(F)CCN(C(=O)C#CC(C)(C)N(C)C)CC3)C(=O)N3CCCC(N3)C(=O)OCC(C)(C)C2)C1 ... inactive
3. Nc1ccn(C2OC(CO)C(O)C2(F)F)c(=O)n1 (centres undefined) + CCn1c(-c2cc(N3CCN(C)CC3)cnc2C(C)OC)c2c3cc(ccc31)-c1csc(n1)CC(NC(=O)C1CC1C)C(=O)N1CCCC(N1)C(=O)OCC(C)(C)C2 ... active

Let's switch to this molecule now.
Ask: Given CCN1CCN(Cc2ccc(Nc3ncc(F)c(-c4cc(F)c5nc(C)n(C(C)C)c5c4)n3)nc2)CC1 + CCn1c(-c2cc(N3CCN(C)CC3)cnc2C(C)OC)c2c3cc(ccc31)-c1csc(n1)CC(NC(=O)C1CC1C)C(=O)N1CCCC(N1)C(=O)OCC(C)(C)C2 , state the outcome it received in this test.
Result: inactive

* * *

Test system: 186277-243-T-J2-PDC complex spheroids, viability
Assay: Anticancer human tumor 186277-243-T-J2-PDC cell line growth inhibition [RAS];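 note: spheroids exposed to compounds for 7 days before viability read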
Details: curve of first compound; second compound 0.03 µM
pIC50: −log10 of the molar value.
observable: pIC50

Please review the following examples before continuing.
1. CC1(O)CCCC1n1c(=O)c(C(F)F)cc2cnc(NC3CCN(S(C)(=O)=O)CC3)nc21 (stereo not drawn) + CCn1c(-c2cc(N3CCN(C)CC3)cnc2C(C)OC)c2c3cc(ccc31)-c1csc(n1)CC(NC(=O)C1CC1C)C(=O)N1CCCC(N1)C(=O)OCC(C)(C)C2 ... > 7.50
2. Nc1ccn(C2OC(CO)C(O)C2(F)F)c(=O)n1 (stereo not drawn) + CCn1c(-c2cccnc2C(C)OC)c2c3cc(ccc31)N1CCOC(CC(NC(=O)C(C(C)C)N(C)C(=O)C3(F)CCN(C(=O)C#CC(C)(C)N(C)C)CC3)C(=O)N3CCCC(N3)C(=O)OCC(C)(C)C2)C1 ... 8.34
3. CC(C)NCC(C(=O)N1CCN(c2ncnc3c2C(C)CC3O)CC1)c1ccc(Cl)cc1 (stereo not drawn) + CCn1c(-c2cccnc2C(C)OC)c2c3cc(ccc31)N1CCOC(CC(NC(=O)C(C(C)C)N(C)C(=O)C3(F)CCN(C(=O)C#CC(C)(C)N(C)C)CC3)C(=O)N3CCCC(N3)C(=O)OCC(C)(C)C2)C1 ... 5.86
4. C=CC(=O)Nc1cc(Nc2nccc(-c3cn(C)c4ccccc34)n2)c(OC)cc1N(C)CCN(C)C + CCn1c(-c2cccnc2C(C)OC)c2c3cc(ccc31)N1CCOC(CC(NC(=O)C(C(C)C)N(C)C(=O)C3(F)CCN(C(=O)C#CC(C)(C)N(C)C)CC3)C(=O)N3CCCC(N3)C(=O)OCC(C)(C)C2)C1 ... < 6.00

# map each compound to its pIC50
1. C=CC(=O)N1CCN(c2nc(OCC3CCCN3C)nc3c(F)c(-c4nc(N)cc(C)c4C(F)(F)F)c(Cl)cc23)C(C)C1 (stereo not drawn) + CCn1c(-c2cc(N3CCN(C)CC3)cnc2C(C)OC)c2c3cc(ccc31)-c1csc(n1)CC(NC(=O)C1CC1C)C(=O)N1CCCC(N1)C(=O)OCC(C)(C)C2
2. C[C@@H](NC(=O)c1ncnc(N)c1Cl)c1ncc(C(=O)Nc2cc(C(F)(F)F)c(Cl)cn2)s1 + CCn1c(-c2cccnc2C(C)OC)c2c3cc(ccc31)N1CCOC(CC(NC(=O)C(C(C)C)N(C)C(=O)C3(F)CCN(C(=O)C#CC(C)(C)N(C)C)CC3)C(=O)N3CCCC(N3)C(=O)OCC(C)(C)C2)C1
3. CC(Nc1ccc2c(c1)OCCn1cc(N3C(=O)OCC3C(F)F)nc1-2)C(N)=O (stereo not drawn) + CCn1c(-c2cc(N3CCN(C)CC3)cnc2C(C)OC)c2c3cc(ccc31)-c1csc(n1)CC(NC(=O)C1CC1C)C(=O)N1CCCC(N1)C(=O)OCC(C)(C)C2
4. CC1(C)CCC(Nc2ncc(C(F)(F)F)c(-c3c[nH]c4c(P(C)(C)=O)c(C#N)ccc34)n2)CN1 (stereo not drawn) + CCn1c(-c2cc(N3CCN(C)CC3)cnc2C(C)OC)c2c3cc(ccc31)-c1csc(n1)CC(NC(=O)C1CC1C)C(=O)N1CCCC(N1)C(=O)OCC(C)(C)C2

Result:
> 8.50
< 5.00
> 7.50
> 9.02
